Origin of values: patent US11931424B2

# System: panel of breast cancer cell lines
# EXPERIMENT_SUMMARY: Compound A with targeted agents and chemotherapies, 72-hour in vitro proliferation assays
# Assay type: cell-based
# APPLIED_CONDITIONS: DU-4475 cell line; compound A × partner; 72-hour proliferation
Where a name gives a salt, the structure may show the parent alone.
Could you please report measured HSA volume for the items listed next?

Briefly, HSA volume measured for CN(C)C(=O)c1cc2cnc(Nc3ccc(N4CCNCC4)cn3)nc2n1C1CCCC1 [LEE011] : 0.20

Briefly, HSA volume measured for CO[C@H]1C[C@@H]2CC[C@@H](C)[C@@](O)(O2)C(=O)C(=O)N2CCCC[C@H]2C(=O)O[C@H]([C@H](C)C[C@@H]2CC[C@@H](OCCO)[C@H](OC)C2)CC(=O)[C@H](C)/C=C(\C)[C@@H](O)[C@@H](OC)C(=O)[C@H](C)C[C@H](C)/C=C/C=C/C=C/1C [Everolimus] : 1.94

Briefly, HSA volume measured for CC(=O)O[C@@]12CO[C@@H]1C[C@H](O)[C@@]1(C)C(=O)[C@H](O)C3=C(C)[C@@H](OC(=O)[C@H](O)[C@@H](NC(=O)OC(C)(C)C)c4ccccc4)C[C@@](O)([C@@H](OC(=O)c4ccccc4)[C@H]21)C3(C)C [Docetaxel] : 13.68

Briefly, HSA volume measured for CC1(C)CCC(CN2CCN(c3ccc(C(=O)NS(=O)(=O)c4ccc(NCC5CCOCC5)c([N+](=O)[O-])c4)c(Oc4cnc5[nH]ccc5c4)c3)CC2)=C(c2ccc(Cl)cc2)C1 [ABT-199] : 8.46

Briefly, HSA volume measured for CCN1CCN(Cc2ccc(Nc3ncc(F)c(-c4cc(F)c5nc(C)n(C(C)C)c5c4)n3)nc2)CC1 [Abemaciclib] : 5.32

Briefly, HSA volume measured for CC(=O)c1c(C)c2cnc(Nc3ccc(N4CCNCC4)cn3)nc2n(C2CCCC2)c1=O [PD-0332991] : −1.86

Briefly, HSA volume measured for Nc1ccn([C@@H]2O[C@H](CO)[C@@H](O)C2(F)F)c(=O)n1 [Gemcitabine Hydrochloride] : −3.58

Briefly, HSA volume measured for O=C(c1cc(Cc2n[nH]c(=O)c3ccccc23)ccc1F)N1CCN(C(=O)C2CC2)CC1 [Olaparib] : 5.68

Briefly, HSA volume measured for CC(C)NC[C@@H](C(=O)N1CCN(c2ncnc3c2[C@H](C)C[C@H]3O)CC1)c1ccc(Cl)cc1 [GDC-0068] : −7.77

Briefly, HSA volume measured for CC1(C)CCC(c2ccc(Cl)cc2)=C(CN2CCN(c3ccc(C(=O)NS(=O)(=O)c4ccc(N[C@H](CCN5CCOCC5)CSc5ccccc5)c(S(=O)(=O)C(F)(F)F)c4)cc3)CC2)C1 [ABT-263] : 22.37

Briefly, HSA volume measured for N.N.[Cl][Pt][Cl] [Cisplatin] : 5.48

Briefly, HSA volume measured for Cn1ncnc1[C@H]1c2n[nH]c(=O)c3cc(F)cc(c23)N[C@@H]1c1ccc(F)cc1 [BMN 673] : 11.67

Briefly, HSA volume measured for N.N.O=C([O-])C1(C(=O)[O-])CCC1.[Pt+2] [Carboplatin] : 7.26

* * *

# Test system: panel of breast cancer cell lines
# EXPERIMENT_SUMMARY: Compound A with targeted agents and chemotherapies, 72-hour in vitro proliferation assays
# Format: cell-based
# APPLIED_CONDITIONS: HCC1937; compound A × partner, 72-hour proliferation
Counter-ions that a name gives are not always drawn.
So basically, the class depends on measured Best CI, and the ranges are low = under 0.3, mid = from 0.3 up to 0.6, high = 0.6 and over

Place this compound in its band: CN(C)C(=O)c1cc2cnc(Nc3ccc(N4CCNCC4)cn3)nc2n1C1CCCC1
high

Place this compound in its band: CC(=O)O[C@H]1C(=O)[C@@]2(C)[C@H]([C@H](OC(=O)c3ccccc3)[C@]3(O)C[C@H](OC(=O)[C@H](O)[C@@H](NC(=O)c4ccccc4)c4ccccc4)C(C)=C1C3(C)C)[C@]1(OC(C)=O)CO[C@@H]1C[C@@H]2O [Paclitaxel, reference compound]
low

Place this compound in its band: CS(=O)(=O)CCNCc1ccc(-c2ccc3ncnc(Nc4ccc(OCc5cccc(F)c5)c(Cl)c4)c3c2)o1 [Lapatinib Ditosylate]
high

Place this compound in its band: Nc1ccn([C@@H]2O[C@H](CO)[C@@H](O)C2(F)F)c(=O)n1 [Gemcitabine Hydrochloride]
mid

Place this compound in its band: CCOc1cc2ncc(C#N)c(Nc3ccc(OCc4ccccn4)c(Cl)c3)c2cc1NC(=O)/C=C/CN(C)C
high

Place this compound in its band: CCN1CCN(Cc2ccc(Nc3ncc(F)c(-c4cc(F)c5nc(C)n(C(C)C)c5c4)n3)nc2)CC1
low

Place this compound in its band: Cn1ncnc1[C@H]1c2n[nH]c(=O)c3cc(F)cc(c23)N[C@@H]1c1ccc(F)cc1
mid

Place this compound in its band: CC(C)NC[C@@H](C(=O)N1CCN(c2ncnc3c2[C@H](C)C[C@H]3O)CC1)c1ccc(Cl)cc1
mid

Place this compound in its band: CC1(C)CCC(CN2CCN(c3ccc(C(=O)NS(=O)(=O)c4ccc(NCC5CCOCC5)c([N+](=O)[O-])c4)c(Oc4cnc5[nH]ccc5c4)c3)CC2)=C(c2ccc(Cl)cc2)C1
low

Place this compound in its band: Cc1c(-c2ccc(N3CCc4cccc(C(=O)Nc5nc6ccccc6s5)c4C3)nc2C(=O)O)cnn1CC12CC3CC(CC(C3)C1)C2
low

Place this compound in its band: CC/C(=C(\c1ccccc1)c1ccc(OCCN(C)C)cc1)c1ccccc1 [Tamoxifen Citrate]
high

Place this compound in its band: N.N.O=C([O-])C1(C(=O)[O-])CCC1.[Pt+2]
mid

Place this compound in its band: CC1(C)CCC(c2ccc(Cl)cc2)=C(CN2CCN(c3ccc(C(=O)NS(=O)(=O)c4ccc(N[C@H](CCN5CCOCC5)CSc5ccccc5)c(S(=O)(=O)C(F)(F)F)c4)cc3)CC2)C1
low

Place this compound in its band: O=C(c1cc(Cc2n[nH]c(=O)c3ccccc23)ccc1F)N1CCN(C(=O)C2CC2)CC1
high

Place this compound in its band: N.N.[Cl][Pt][Cl] [Cisplatin]
high

Place this compound in its band: CC(=O)c1c(C)c2cnc(Nc3ccc(N4CCNCC4)cn3)nc2n(C2CCCC2)c1=O
low
